tested-target: T1, Rb^P Q504E (human, UniProt P06400 380-788, Q504E)
T1 construct: also called variant 19
T1 sequence (looked up): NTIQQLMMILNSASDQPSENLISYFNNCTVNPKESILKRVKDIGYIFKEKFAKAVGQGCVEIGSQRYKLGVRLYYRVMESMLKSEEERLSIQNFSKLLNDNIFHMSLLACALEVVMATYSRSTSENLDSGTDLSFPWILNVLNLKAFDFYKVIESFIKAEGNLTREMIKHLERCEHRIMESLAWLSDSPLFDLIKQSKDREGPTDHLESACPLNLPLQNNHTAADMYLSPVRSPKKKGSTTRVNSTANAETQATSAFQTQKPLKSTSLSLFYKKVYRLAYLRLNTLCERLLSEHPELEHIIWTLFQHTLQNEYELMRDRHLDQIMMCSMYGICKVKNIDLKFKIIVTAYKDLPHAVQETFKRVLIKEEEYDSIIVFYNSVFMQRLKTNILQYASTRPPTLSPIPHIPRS
experimental-protocol: fluorescence polarisation; 37 °C, after the 25 °C reading ramped over 7 min to 37 °C and 2 min incubation; unlabeled Rb^P against 1.5 nM TMR-E2F1^TD or 7.5 nM TMR-E7^LxCxE; 25 mM Tris pH 8.0, 200 mM NaCl, 1 mM DTT, 0.1% Tween-20; apparent Kd
test-parameters: both partners purified
No end group written: not given here. TMR = tetramethyl rhodamine dye
Consider the following binders; for each one, report its pKd.
// scale note: pKd = -log10(conc_M); give the bare number

## Task Give the reported value of pKd for this record: DLYCYEQLN (also: TMR label, position not given here, source: synthetic peptide, bought: GenScript) [TMR-E7^LxCxE, LxCxE peptide of the E7 oncoprotein from HPV]
## Result 7.96

## Task Give the reported value of pKd for this record: {TMR}-GEGIRDLFDCDFGDLTPLD (also called E2F^TD; source: synthetic peptide, bought: GenScript) [TMR-E2F1^TD, peptide of the E2F1 transactivation domain]
## Result 7.48

Data provenance is paper PMC11931385.
